# TESTED_SYSTEM: T1, Boi1, P38041
# T1 sequence (P38041 1-86, looked up): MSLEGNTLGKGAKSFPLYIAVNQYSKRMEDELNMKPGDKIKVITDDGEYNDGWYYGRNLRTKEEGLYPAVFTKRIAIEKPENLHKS
# ASSAY_TEXT: SPOT array
# DETAILS: median of control spots 1162
MEASUREMENT_LABEL: SPOT intensity

Past entries and their recorded results:
KTKQQKPAIPQKKSF	0
SLSRRRFSLPSMPNV	1
NLKKRPPTAPQRKIS	15

[P] LKPPIGRPPKFPKSP
[Q] DGNEEKPLLPTRPNK
[ask] Select the item with the higher value of SPOT intensity from the options P and Q listed. Lab log: write the label of the selected item as the result.
[reply] P
(P: 3, Q: 0)
